Target: α-glucosidase (Saccharomyces cerevisiae)
Construct: purchased Sigma Co. (St. Louis, Mo.); host or cells: baker's yeast
Sequence (P53341 whole entry): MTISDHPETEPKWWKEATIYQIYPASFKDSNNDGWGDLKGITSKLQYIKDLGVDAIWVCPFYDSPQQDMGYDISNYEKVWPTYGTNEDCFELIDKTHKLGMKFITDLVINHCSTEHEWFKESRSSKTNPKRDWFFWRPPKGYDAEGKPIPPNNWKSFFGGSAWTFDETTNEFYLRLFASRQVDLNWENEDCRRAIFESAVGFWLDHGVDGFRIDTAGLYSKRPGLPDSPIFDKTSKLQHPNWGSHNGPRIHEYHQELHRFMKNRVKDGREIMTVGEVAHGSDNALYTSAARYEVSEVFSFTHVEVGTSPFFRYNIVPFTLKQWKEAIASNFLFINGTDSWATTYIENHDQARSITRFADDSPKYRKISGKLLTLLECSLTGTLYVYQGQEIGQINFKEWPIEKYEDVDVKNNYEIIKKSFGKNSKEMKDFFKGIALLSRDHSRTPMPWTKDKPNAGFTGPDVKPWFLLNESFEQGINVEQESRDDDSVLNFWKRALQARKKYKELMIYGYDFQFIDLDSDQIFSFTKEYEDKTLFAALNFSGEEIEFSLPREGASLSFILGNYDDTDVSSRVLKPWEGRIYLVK
Test: α-glucosidase inhibition assay (in situ screen, IC50, Ki)
Format: biochemical, baker's yeast
Conditions: reaction product at 20 μM, in situ screening
List of α-glucosidase Inhibition (%) values.
Write down the numeric answer in % and omit the unit.

These solved cases illustrate the format of a correct answer.
compound=O=C(NC[C@H]1N[C@H](CO)[C@@H](O)[C@@H]1O)c1ccccc1 metric="α-glucosidase Inhibition (%)" recordedresult=16
compound=O=C(NC[C@H]1N[C@H](CO)[C@@H](O)[C@@H]1O)c1ccc2ccccc2c1 metric="α-glucosidase Inhibition (%)" recordedresult=45
compound=O=C(NC[C@H]1N[C@H](CO)[C@@H](O)[C@@H]1O)c1cn(Cc2ccccc2)c2ccccc12 metric="α-glucosidase Inhibition (%)" recordedresult=63
compound="O=C(NC[C@H]1N[C@H](CO)[C@@H](O)[C@@H]1O)C1Cc2ccccc21 (some centres unmarked)" metric="α-glucosidase Inhibition (%)" recordedresult=93
compound="CCCCC(CC)C(=O)NC[C@H]1N[C@H](CO)[C@@H](O)[C@@H]1O (some centres unmarked)" metric="α-glucosidase Inhibition (%)" recordedresult=61

query: Could you share which α-glucosidase Inhibition (%) value was measured for O=C(Cc1ccc2ccccc2c1)NC[C@H]1N[C@H](CO)[C@@H](O)[C@@H]1O ?
result: 67

query: Could you share which α-glucosidase Inhibition (%) value was measured for O=C(NC[C@H]1N[C@H](CO)[C@@H](O)[C@@H]1O)c1ccc2c(c1)C(=O)c1ccccc1-2 ?
result: 56

query: Could you share which α-glucosidase Inhibition (%) value was measured for CN(C)c1ccc(C(=O)NC[C@H]2N[C@H](CO)[C@@H](O)[C@@H]2O)cc1 ?
result: 41
